# Condition Set: buffer; pH 7.4; 200.0 µM
Parameter: solubility kinetic. Scope: all listed entries.
Metric: solubility kinetic (mg/mL)

[
  {
    "Compound": "COc1ccccc1CNC(=O)CC1Sc2ccccc2NC1=O (configuration not stated)",
    "Metric": "solubility kinetic",
    "Comparison Operator": "=",
    "Data Value": 0.0017
  },
  {
    "Compound": "O=C(CN1CCN(c2ccccc2)CC1)Nc1scc2c1c(=O)oc1ccccc12",
    "Metric": "solubility kinetic",
    "Comparison Operator": "<",
    "Data Value": 0.0003
  },
  {
    "Compound": "CN=C(Nc1cccnc1)c1cccc(C(F)(F)F)c1",
    "Metric": "solubility kinetic",
    "Comparison Operator": ">",
    "Data Value": 0.0419
  },
  {
    "Compound": "Cc1ccc(C)c(OC(=O)c2cccnc2Cl)c1C",
    "Metric": "solubility kinetic",
    "Comparison Operator": "=",
    "Data Value": 0.0148
  },
  {
    "Compound": "Cc1cccc(NC(=O)CCCc2ccccc2)c1",
    "Metric": "solubility kinetic",
    "Comparison Operator": "=",
    "Data Value": 0.0313
  },
  {
    "Compound": "N#CCSc1nc2ccccc2o1",
    "Metric": "solubility kinetic",
    "Comparison Operator": "=",
    "Data Value": 0.0143
  },
  {
    "Compound": "CCOC(=O)N1CCN=C1SCc1ccc(C(F)(F)F)cc1",
    "Metric": "solubility kinetic",
    "Comparison Operator": "=",
    "Data Value": 0.0136
  },
  {
    "Compound": "CCC(C)Nc1cc(C)c(C#N)c2nc3ccccc3n12 (configuration not stated)",
    "Metric": "solubility kinetic",
    "Comparison Operator": "=",
    "Data Value": 0.0037
  },
  {
    "Compound": "CC(C)(C)c1cc(CCC(=O)NCc2cccnc2)cc(C(C)(C)C)c1O",
    "Metric": "solubility kinetic",
    "Comparison Operator": "=",
    "Data Value": 0.0365
  },
  {
    "Compound": "CN1CCN(c2oc(-c3ccc([N+](=O)[O-])cc3)nc2C#N)CC1",
    "Metric": "solubility kinetic",
    "Comparison Operator": "=",
    "Data Value": 0.0041
  },
  {
    "Compound": "COC(=O)c1cccc(NC(=O)CCc2c(C)noc2C)c1",
    "Metric": "solubility kinetic",
    "Comparison Operator": ">",
    "Data Value": 0.0453
  },
  {
    "Compound": "NC(=O)c1ccc(NC(=O)CNC(c2ccccc2)c2ccccc2)cc1",
    "Metric": "solubility kinetic",
    "Comparison Operator": "=",
    "Data Value": 0.0037
  }
]

* * *

# Condition Set: buffer; pH 7.4; 200.0 µM

[
  {
    "Compound": "CC(=O)Nc1ccc(S(=O)(=O)NCC(=O)OCC(=O)c2ccc[nH]2)cc1",
    "Comparison Operator": ">",
    "solubility kinetic, µg/mL": 56.9
  },
  {
    "Compound": "CC1CCCC(NC(=O)/C=C/c2c(F)cccc2Cl)C1C (stereo unspecified)",
    "Comparison Operator": "=",
    "solubility kinetic, µg/mL": 0.9
  },
  {
    "Compound": "CCOc1ccccc1C(=O)NC1CCN(Cc2ccccc2)CC1",
    "Comparison Operator": "=",
    "solubility kinetic, µg/mL": 36.8
  },
  {
    "Compound": "CC1C(=O)N2CCCc3cc(NS(C)(=O)=O)cc1c32 (stereo unspecified)",
    "Comparison Operator": "=",
    "solubility kinetic, µg/mL": 40.3
  },
  {
    "Compound": "Cc1sc(NC(=O)c2c(F)cccc2F)nc1-c1ccccc1",
    "Comparison Operator": "=",
    "solubility kinetic, µg/mL": 0.6
  },
  {
    "Compound": "CN(C)CCCNc1nc(-c2ccccc2)c2c(c1C#N)CC(C)(C)OC2",
    "Comparison Operator": "=",
    "solubility kinetic, µg/mL": 47.3
  },
  {
    "Compound": "O=S(=O)(c1ccc(-c2ccccc2)cc1)N1CCCCC1",
    "Comparison Operator": "<",
    "solubility kinetic, µg/mL": 0.6
  },
  {
    "Compound": "O=C(NCc1cccs1)C1CC(c2ccc(Cl)cc2)=NO1 (stereo unspecified)",
    "Comparison Operator": "=",
    "solubility kinetic, µg/mL": 1.3
  },
  {
    "Compound": "Br.CC(Cc1ccc(O)cc1)NCC(O)c1cc(O)cc(O)c1 (stereo unspecified)",
    "Comparison Operator": ">",
    "solubility kinetic, µg/mL": 57.6
  },
  {
    "Compound": "CC(=O)Nc1ccc(C(=O)CN2C(=O)CSC2=O)cc1",
    "Comparison Operator": ">",
    "solubility kinetic, µg/mL": 43.8
  },
  {
    "Compound": "COC(=O)c1ccc(N=CC2=C(O)CC(c3ccccc3)CC2=O)cc1 (stereo unspecified)",
    "Comparison Operator": "=",
    "solubility kinetic, µg/mL": 2.1
  }
]
